ASSAY NAME: molar heat capacity at constant pressure
EXPERIMENTAL PARAMETERS: 194.15 K; 101.33 kPa; Crystal; Small sample (50 mg) DSC
READOUT: molar heat capacity at constant pressure (J/K/mol)

[
  {
    "MOLECULE": "OC[C@@H](O)[C@@H](O)[C@H](O)[C@H](O)CO",
    "VALUE OBSERVED": 149.99
  },
  {
    "MOLECULE": "OC[C@H](O)C(O)[C@@H](O)CO [L-(-)-arabitol]",
    "VALUE OBSERVED": 135.12
  },
  {
    "MOLECULE": "OC[C@@H](O)[C@@H](O)CO",
    "VALUE OBSERVED": 108.84
  },
  {
    "MOLECULE": "OC[C@@H](O)C(O)[C@H](O)CO",
    "VALUE OBSERVED": 128.51
  },
  {
    "MOLECULE": "O[C@H]1[C@H](O)[C@@H](O)[C@H](O)[C@@H](O)[C@H]1O [cis-1,2,3,5-trans-4,6-cyclohexanehexol]",
    "VALUE OBSERVED": 137.52
  },
  {
    "MOLECULE": "OC[C@@H](O)[C@H](O)[C@@H](O)CO",
    "VALUE OBSERVED": 134.85
  }
]

---

EXPERIMENTAL PARAMETERS: 20 K; 101.33 kPa; Crystal; relaxation calorimetry
READOUT: molar entropy (J/K/mol)

[
  {
    "COMPOUND": "OC[C@@H](O)[C@@H](O)CO [meso-1,2,3,4-butanetetrol]",
    "VALUE OBSERVED": 2.466
  },
  {
    "COMPOUND": "OC[C@@H](O)[C@@H](O)[C@H](O)[C@H](O)CO [D-mannitol]",
    "VALUE OBSERVED": 2.796
  },
  {
    "COMPOUND": "O[C@H]1[C@H](O)[C@@H](O)[C@H](O)[C@@H](O)[C@H]1O [cis-1,2,3,5-trans-4,6-cyclohexanehexol]",
    "VALUE OBSERVED": 3.401
  },
  {
    "COMPOUND": "OC[C@@H](O)C(O)[C@H](O)CO [D-arabitol]",
    "VALUE OBSERVED": 2.431
  },
  {
    "COMPOUND": "OC[C@@H](O)[C@H](O)[C@@H](O)CO [xylitol]",
    "VALUE OBSERVED": 2.464
  },
  {
    "COMPOUND": "OC[C@H](O)C(O)[C@@H](O)CO [L-(-)-arabitol]",
    "VALUE OBSERVED": 2.479
  }
]

---

ASSAY NAME: molar heat capacity at constant pressure
EXPERIMENTAL PARAMETERS: 10 K; 101.33 kPa; Crystal; relaxation calorimetry
READOUT: molar heat capacity at constant pressure (J/K/mol)

[
  {
    "MOLECULE": "OC[C@H](O)C(O)[C@@H](O)CO [L-(-)-arabitol]",
    "VALUE OBSERVED": 0.9169
  },
  {
    "MOLECULE": "OC[C@@H](O)[C@H](O)[C@@H](O)CO",
    "VALUE OBSERVED": 1.004
  },
  {
    "MOLECULE": "OC[C@@H](O)C(O)[C@H](O)CO",
    "VALUE OBSERVED": 0.8917
  },
  {
    "MOLECULE": "OC[C@@H](O)[C@@H](O)[C@H](O)[C@H](O)CO",
    "VALUE OBSERVED": 1.071
  }
]

I. O[C@H]1[C@H](O)[C@@H](O)[C@H](O)[C@@H](O)[C@H]1O [cis-1,2,3,5-trans-4,6-cyclohexanehexol]
II. OC[C@@H](O)[C@@H](O)CO
Exercise: compare I and II ; which one has the greater molar heat capacity at constant pressure? Mark your answer with the label of the selected entry.
I
(I: 1.523 J/K/mol, II: 0.9714 J/K/mol)

---

ASSAY NAME: molar heat capacity at constant pressure
EXPERIMENTAL PARAMETERS: 334.15 K; 101.33 kPa; Crystal; Small sample (50 mg) DSC
READOUT: molar heat capacity at constant pressure (J/K/mol)

[
  {
    "MOLECULE": "OC[C@@H](O)[C@H](O)[C@@H](O)CO",
    "molar heat capacity at constant pressure [J/K/mol]": 239.74
  },
  {
    "MOLECULE": "O[C@H]1[C@H](O)[C@@H](O)[C@H](O)[C@@H](O)[C@H]1O [cis-1,2,3,5-trans-4,6-cyclohexanehexol]",
    "molar heat capacity at constant pressure [J/K/mol]": 249.61
  },
  {
    "MOLECULE": "OC[C@@H](O)[C@@H](O)[C@H](O)[C@H](O)CO",
    "molar heat capacity at constant pressure [J/K/mol]": 262.7
  },
  {
    "MOLECULE": "OC[C@@H](O)C(O)[C@H](O)CO",
    "molar heat capacity at constant pressure [J/K/mol]": 234.14
  },
  {
    "MOLECULE": "OC[C@@H](O)[C@@H](O)CO",
    "molar heat capacity at constant pressure [J/K/mol]": 186.85
  }
]

---

EXPERIMENTAL PARAMETERS: 355 K; 101.33 kPa; Crystal; Small sample (50 mg) DSC
READOUT: molar entropy (J/K/mol)

[
  {
    "MOLECULE": "OC[C@@H](O)C(O)[C@H](O)CO [D-arabitol]",
    "READOUT": "molar entropy",
    "RESULT UNITS": "J/K/mol",
    "VALUE OBSERVED": 239.39
  },
  {
    "MOLECULE": "OC[C@@H](O)[C@H](O)[C@@H](O)CO [xylitol]",
    "READOUT": "molar entropy",
    "RESULT UNITS": "J/K/mol",
    "VALUE OBSERVED": 238.92
  },
  {
    "MOLECULE": "OC[C@@H](O)[C@@H](O)CO [meso-1,2,3,4-butanetetrol]",
    "READOUT": "molar entropy",
    "RESULT UNITS": "J/K/mol",
    "VALUE OBSERVED": 197.11
  },
  {
    "MOLECULE": "OC[C@H](O)C(O)[C@@H](O)CO [L-(-)-arabitol]",
    "READOUT": "molar entropy",
    "RESULT UNITS": "J/K/mol",
    "VALUE OBSERVED": 243.24
  },
  {
    "MOLECULE": "OC[C@@H](O)[C@@H](O)[C@H](O)[C@H](O)CO [D-mannitol]",
    "READOUT": "molar entropy",
    "RESULT UNITS": "J/K/mol",
    "VALUE OBSERVED": 271.49
  },
  {
    "MOLECULE": "O[C@H]1[C@H](O)[C@@H](O)[C@H](O)[C@@H](O)[C@H]1O [cis-1,2,3,5-trans-4,6-cyclohexanehexol]",
    "READOUT": "molar entropy",
    "RESULT UNITS": "J/K/mol",
    "VALUE OBSERVED": 240.38
  }
]

---

ASSAY NAME: molar heat capacity at constant pressure
EXPERIMENTAL PARAMETERS: 281.15 K; 101.33 kPa; Crystal; Small sample (50 mg) DSC
READOUT: molar heat capacity at constant pressure (J/K/mol)

[
  {
    "COMPOUND": "OC[C@@H](O)[C@@H](O)CO [meso-1,2,3,4-butanetetrol]",
    "RESULT UNITS": "J/K/mol",
    "molar heat capacity at constant pressure": 155.17
  },
  {
    "COMPOUND": "O[C@H]1[C@H](O)[C@@H](O)[C@H](O)[C@@H](O)[C@H]1O [cis-1,2,3,5-trans-4,6-cyclohexanehexol]",
    "RESULT UNITS": "J/K/mol",
    "molar heat capacity at constant pressure": 204.75
  },
  {
    "COMPOUND": "OC[C@@H](O)C(O)[C@H](O)CO [D-arabitol]",
    "RESULT UNITS": "J/K/mol",
    "molar heat capacity at constant pressure": 188.79
  },
  {
    "COMPOUND": "OC[C@@H](O)[C@H](O)[C@@H](O)CO [xylitol]",
    "RESULT UNITS": "J/K/mol",
    "molar heat capacity at constant pressure": 196.83
  },
  {
    "COMPOUND": "OC[C@@H](O)[C@@H](O)[C@H](O)[C@H](O)CO [D-mannitol]",
    "RESULT UNITS": "J/K/mol",
    "molar heat capacity at constant pressure": 217.54
  },
  {
    "COMPOUND": "OC[C@H](O)C(O)[C@@H](O)CO [L-(-)-arabitol]",
    "RESULT UNITS": "J/K/mol",
    "molar heat capacity at constant pressure": 195.85
  }
]
